# procedure_text: Caspase-3/7 induction in HepG2 cells by small molecules, qHTS assay (AID 1346978); also: nearly all actives have a fitted effect of over 15% in size
# protocol_conditions: HepG2 caspase-3/7 activation, Caspase-Glo luminescence, 17 h; series mostly up to 92.4 µM
Inconclusive results are not listed. Calls of active or inactive are those of the source. Calls follow the shape of the dose curve; as a rule, active = well fitted activation curve with a large enough effect in the repeat runs; inconclusive = weak or mixed curves; inactive = flat fitted curve, though single readings scatter.
Choose the fitting class; nothing outside True (active), False (inactive) is accepted.

// return assay outcome for CN(C)CCCN1c2ccccc2CCc2ccccc21
False

// same read-out, input: CCCCN(CCCC)CCC(O)c1cc2c(Cl)cc(Cl)cc2c2cc(C(F)(F)F)ccc12 (stereo not given)
False

// same read-out, input: CO[Si](CCC1CCC2OC2C1)(OC)OC (stereo not given)
False

// same read-out, input: CCCCCCCCCCCC(=O)N(CC)CC
False

// same read-out, input: CCCCCCCCCCOCC(O)CN (stereo not given)
True

// same read-out, input: CN1CN(C)CN(C)C1
False

// same read-out, input: CC1CCCNC1 (stereo not given)
False

// same read-out, input: CCCCCCCCC(C)=O
False

// same read-out, input: Nc1cc(Cl)c([N+](=O)[O-])cc1O
False

// same read-out, input: C=CC(=O)OCCN(CC)CC
False

// same read-out, input: CCc1cccc(CC)c1N(COC)C(=O)CS(=O)(=O)O
False

// same read-out, input: CC(C)=CCCC(C)O (stereo not given)
False

// same read-out, input: CC(C)=C1CC[C@@H](C)CC1=O
False

// same read-out, input: CCC1(c2cnc[nH]2)Cc2ccccc2C1
False

// same read-out, input: O=C(Oc1ccccc1)c1cccc(C(=O)Oc2ccccc2)c1
False

----------
# procedure_text: A CellTox Green Cytotoxicity Assay to monitor cytotoxicity in HepG2 cells - 40 hour (AID 1224879); also: % is scaled to controls: 0 for no effect and ±100 for the full control effect; nearly all actives have a fitted effect of over 40% in size
# protocol_conditions: CellTox Green fluorescence; series mostly up to 76.8 µM
Results filed as inconclusive are left out. Active and inactive are the calls of the source. Calls follow the shape of the dose curve; as a rule, active = well fitted activation curve with a large enough effect in the repeat runs; inconclusive = weak or mixed curves; inactive = flat fitted curve, though single readings scatter.
Give measured cytotoxicity increase for each item. Keep answers brief.

# get_value(readout='cytotoxicity increase', item= O=S(O)O )
-12.9% [at 15.8 µM] (inactive)

// same read-out, input: C=C/C=C/C=C/CCCCC
-4.48% [at 15.8 µM] (inactive)

// same read-out, input: C=CC(=C)CC/C=C(\C)CCC=C(C)C
-0.316% [at 15.8 µM] (inactive)

// same read-out, input: N[C@@H](CSSC[C@H](N)C(=O)O)C(=O)O
5.29% [at 0.29 µM] (inactive)

// same read-out, input: O=S(=O)(O)c1cc(S(=O)(=O)O)c2ccc3c(S(=O)(=O)O)cc(S(=O)(=O)O)c4ccc1c2c43
-11.4% [at 15.8 µM] (inactive)

----------
# target: Estrogen receptor (Homo sapiens) (UniProt P03372)
# Sequence (P03372 whole entry, looked up): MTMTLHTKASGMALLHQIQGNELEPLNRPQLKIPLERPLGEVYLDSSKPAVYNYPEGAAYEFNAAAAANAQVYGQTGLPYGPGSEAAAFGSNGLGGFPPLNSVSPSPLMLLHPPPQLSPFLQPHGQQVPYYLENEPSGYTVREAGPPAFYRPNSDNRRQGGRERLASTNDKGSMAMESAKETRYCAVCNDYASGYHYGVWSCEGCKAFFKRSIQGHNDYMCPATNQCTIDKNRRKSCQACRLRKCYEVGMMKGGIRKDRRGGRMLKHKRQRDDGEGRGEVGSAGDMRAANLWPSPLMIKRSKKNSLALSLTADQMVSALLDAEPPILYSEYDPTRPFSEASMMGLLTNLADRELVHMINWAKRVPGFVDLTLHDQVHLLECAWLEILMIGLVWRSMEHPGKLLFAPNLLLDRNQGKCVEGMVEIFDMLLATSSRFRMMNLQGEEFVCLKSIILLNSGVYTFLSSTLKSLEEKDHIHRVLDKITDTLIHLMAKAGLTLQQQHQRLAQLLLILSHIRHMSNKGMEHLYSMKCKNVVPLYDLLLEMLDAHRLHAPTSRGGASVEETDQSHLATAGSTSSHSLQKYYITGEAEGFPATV
# procedure_text: qHTS assay to identify small molecule agonists of the estrogen receptor alpha (ER-alpha) signaling pathway (AID 743075);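 also: HEK293 GripTite cells with ER-alpha and UAS-driven beta-lactamase reporter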; also: potency is read from the fitted curve at half-maximal effect
# protocol_conditions: HEK293 ER-alpha-UAS-bla, beta-lactamase FRET ratio, 18 h; series mostly up to 70.1 µM
The source made the active and inactive calls. The call rests on the fitted dose curve.
measurement_name: Potency

Worked examples, 4 compounds total:
# smiles_str, result
data = [
    ("CC(=O)Oc1ccc(C2(c3ccc(OC(C)=O)cc3)Oc3ccccc3NC2=O)cc1", "7.56 µM [inconclusive] (active)"),
    ("CCCCCCCCCCCCCOP(=O)(O)O", "inactive"),
    ("CO[C@H]1C=CO[C@@]2(C)Oc3c(C)c(O)c4c(O)c(cc(O)c4c3C2=O)NC(=O)/C(C)=C\\C=C/[C@H](C)[C@H](O)[C@@H](C)[C@@H](O)[C@@H](C)[C@H](OC(C)=O)[C@@H]1C", "inactive"),
    ("CN(C)CCCN1c2ccccc2Sc2ccc(C(F)(F)F)cc21", "inactive"),
]

# get_value(readout='Potency', item= CCCCCCOc1cc(C)c(O)c(C)c1C )
inactive

----------
# target: Estrogen receptor (Homo sapiens) (UniProt P03372)
# procedure_text: qHTS assay to identify small molecule agonists of the estrogen receptor alpha (ER-alpha) signaling pathway (AID 743075);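 also: HEK293 GripTite cells with ER-alpha and UAS-driven beta-lactamase reporter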
# protocol_conditions: HEK293 ER-alpha-UAS-bla, beta-lactamase FRET ratio, 18 h; series mostly up to 70.1 µM
Calls of active or inactive are those of the source. Calls come from the whole dose curve.
Choose the fitting class; nothing outside active, inactive is accepted.

// return assay outcome for COc1cc(C=C2CCC/C(=C\c3ccc(O)c(OC)c3)C2=O)ccc1O
inactive

// same read-out, input: COC(=O)CC(C)CCC=C(C)C (configuration not stated)
inactive

// same read-out, input: COC(=O)CC#N
inactive

// same read-out, input: CCCCOc1ccc(C(=O)CCN2CCCCC2)cc1
inactive

// same read-out, input: Nc1cc(Cl)c([N+](=O)[O-])cc1O
inactive

// same read-out, input: CCN(CC)CCNc1ccc(CO)c2sc3ccccc3c(=O)c12
inactive

// same read-out, input: O=C(Nc1ccc(Cl)c(Cl)c1)c1cc(Cl)cc(Cl)c1O
active

----------
# procedure_text: qHTS RealTime-Glo MT Cell Viability Assay in HEK293 cells - 32 hour (AID 1224868); also: nearly all actives have a fitted effect of over 50% in size
# protocol_conditions: RealTime-Glo luminescence; series mostly up to 76.8 µM
Inconclusive results are not listed. Active and inactive are the calls of the source. The call rests on the fitted dose curve; in most records, active means well fitted cell-killing curve with a large enough effect in the repeat runs; inconclusive means weak or mixed curves, or effect the other way; inactive means flat fitted curve, though single readings scatter.
Choose the fitting class; nothing outside True (active), False (inactive) is accepted.

// return assay outcome for CCOC(=O)[C@@](C)(N)Cc1ccc(O)c(O)c1
False

// same read-out, input: CCCC(O)C(O)CO (stereo not given)
False

// same read-out, input: CCCCCCC(C)Nc1ccc(Nc2ccccc2)cc1 (stereo not given)
True

// same read-out, input: COc1ccc2sc(C(=O)Nc3nnn[nH]3)c(OC(C)C)c2c1
True

// same read-out, input: OCCN1CN(CCO)CN(CCO)C1
False

// same read-out, input: CCCCCCC(C)OC(=O)COc1nc(F)c(Cl)c(N)c1Cl (stereo not given)
False

// same read-out, input: COC(=O)CC#N
False

// same read-out, input: CC(C)=C1CC[C@@H](C)CC1=O
False

// same read-out, input: Cc1cccc(N(C)C)c1
False

// same read-out, input: C1CC(COCC2CO2)CCC1COCC1CO1 (stereo not given)
False

// same read-out, input: NC(=O)c1ccccc1N
False

// same read-out, input: CC=O
True

// same read-out, input: CCCCN(C)C
False

// same read-out, input: OCCCCl
False

// same read-out, input: CC(C)(c1cc(Br)c(OCCO)c(Br)c1)c1cc(Br)c(OCCO)c(Br)c1
True

----------
# procedure_text: Caspase-3/7 induction in HepG2 cells by small molecules, qHTS assay (AID 1346978); also: nearly all actives have a fitted effect of over 15% in size
# protocol_conditions: HepG2 caspase-3/7 activation, Caspase-Glo luminescence, 17 h; series mostly up to 92.4 µM
Inconclusive results are not listed. Calls of active or inactive are those of the source. The call rests on the fitted dose curve; in most records, active means well fitted activation curve with a large enough effect in the repeat runs; inconclusive means weak or mixed curves; inactive means flat fitted curve, though single readings scatter.
Choose the fitting class; nothing outside active, inactive is accepted.

// return assay outcome for CCN(CC)CCSC(=O)C(c1ccccc1)c1ccccc1
inactive

// same read-out, input: COc1ccc2sc(C(=O)Nc3nnn[nH]3)c(OC(C)C)c2c1
inactive

// same read-out, input: COc1ccccc1C=O
inactive

// same read-out, input: CSc1c(Cl)c(Cl)c(Cl)c(Cl)c1Cl
inactive

// same read-out, input: COC(=O)CC(C)CCC=C(C)C (stereo not drawn)
inactive

// same read-out, input: CNC(=S)NN
active

// same read-out, input: CC(C)c1ccccc1N
inactive

// same read-out, input: CCOC(OCC)C(=O)c1ccccc1
inactive

// same read-out, input: Nc1ncnc2c1ncn2[C@@H]1O[C@H](COP(=O)(O)O)[C@@H](O)[C@H]1O
inactive

// same read-out, input: Cc1cn[nH]c1
inactive

// same read-out, input: CN1[C@@H]2CC[C@@H]1CC(OC(=O)C(CO)c1ccccc1)C2 (stereo partly drawn)
inactive

// same read-out, input: CCOC(=O)[C@@](C)(N)Cc1ccc(O)c(O)c1
inactive

// same read-out, input: CCC1CCCCC1
inactive

// same read-out, input: CCC(C)C(=O)OC (stereo not drawn)
inactive

// same read-out, input: COc1ccc(C#N)cc1
inactive

// same read-out, input: CCN(CC)CCCN(c1ccccc1)C1Cc2ccccc2C1
inactive

// same read-out, input: NCCCC(O)(P(=O)(O)O)P(=O)(O)O
inactive

// same read-out, input: C/C=C/C(=O)C1=C(C)CCCC1(C)C
inactive

// same read-out, input: [O]=[Zr]
inactive

// same read-out, input: CC(C)(C)c1cc(CCC(=O)NCCCCCCNC(=O)CCc2cc(C(C)(C)C)c(O)c(C(C)(C)C)c2)cc(C(C)(C)C)c1O
inactive

// same read-out, input: OCCCCl
inactive

// same read-out, input: COc1ccc(-n2nc(CCC(=O)N(C)O)cc2-c2ccc(Cl)cc2)cc1
inactive

// same read-out, input: CC(C)=CCCC(C)CCOC(=O)C(C)C (stereo not drawn)
inactive

// same read-out, input: Cc1ccc2ccc3cccc4ccc1c2c34
inactive

// same read-out, input: CC(=O)Nc1ccc(O)cc1
inactive

// same read-out, input: Cc1c(C(=O)O)cccc1[N+](=O)[O-]
inactive

// same read-out, input: C/C=C/c1ccc(OC)c(OC)c1
inactive

// same read-out, input: CCC(C)c1ccccc1 (stereo not drawn)
inactive

// same read-out, input: CS(C)(=O)=O
inactive

// same read-out, input: CC1CNCC(C)O1 (stereo not drawn)
inactive

// same read-out, input: CC(C)(C)CC(C)(C)c1ccccc1O
active

// same read-out, input: Cc1cccc(Br)c1
inactive

// same read-out, input: CC(=O)C=O
inactive

// same read-out, input: CC1(C)COCN1
inactive

// same read-out, input: CCN(CC)CCOc1ccc(C(O)(Cc2ccc(Cl)cc2)c2ccc(C)cc2)cc1 (stereo not drawn)
active

// same read-out, input: CCCCCCCCCCCCCCNCCO
inactive

// same read-out, input: O=C(O)Cc1ccc(OCCNC[C@H](O)c2ccccc2)cc1
inactive

// same read-out, input: CCC(C)(C)c1cc(O)c(C(C)(C)CC)cc1O
inactive

// same read-out, input: CCO[Si](CCCSSSSCCC[Si](OCC)(OCC)OCC)(OCC)OCC
inactive

// same read-out, input: CCCCCCCC(OC)OC
inactive

// same read-out, input: CC(O)C#CC(C)O (stereo not drawn)
inactive

// same read-out, input: CCCC(=O)OCC(COC(=O)CCC)OC(=O)CCC
inactive

// same read-out, input: CCCCNc1c(C(=O)OCC)c(C)nc2c1cnn2CC
inactive

// same read-out, input: CCN(CC)c1ccc(N)cc1
inactive

// same read-out, input: Cn1cnc2ncnc(N)c21
inactive

// same read-out, input: CCc1ccc(C)nc1
inactive

// same read-out, input: C[n+]1c2cc(N)ccc2cc2ccc(N)cc21 (tested in a mixture with another compound)
active

// same read-out, input: C[Si](C)(C)Cl
inactive

// same read-out, input: CCc1c(Br)c(Br)c(Br)c(Br)c1Br
inactive

// same read-out, input: C[C@H]1O[C@@H](O[C@H]2[C@@H](O)C[C@H](O[C@H]3[C@@H](O)C[C@H](O[C@H]4CC[C@@]5(C)[C@H](CC[C@@H]6[C@@H]5C[C@@H](O)[C@]5(C)[C@@H](C7=CC(=O)OC7)CC[C@]65O)C4)O[C@@H]3C)O[C@@H]2C)C[C@H](O)[C@@H]1O
inactive

// same read-out, input: CCCCCCCC/C=C\CCCCCCCC(=O)N(C)CC(=O)O
inactive

// same read-out, input: CCN(CC)CCNc1ccc(CO)c2sc3ccccc3c(=O)c12
active

// same read-out, input: C/C=C/CO
inactive

// same read-out, input: Cc1cncc(C)c1
inactive

// same read-out, input: CN(C)CCN1CCOCC1
inactive

// same read-out, input: c1cc[nH]c1
inactive

// same read-out, input: CCOB(OCC)OCC
inactive

// same read-out, input: O=C(O)CCn1c2c(c3ccccc31)C[C@H](NS(=O)(=O)c1ccc(F)cc1)CC2
inactive

Origin of measurements: PubChem BioAssay (Tox21)
